- method-summary: Inhibition of tyrosine-protein kinase pp60v-src
Calls of active or inactive are those of the source. The calls are words filed in the database; no cut-off is given here.
result-type: Activity

Solved cases (5 shown):
Exercise: // Activity lookup, key: Oc1c(Oc2ccc(Br)cc2Br)cc(Br)c(Br)c1Br
Solution: inactive

Exercise: Which measured Activity value corresponds to Oc1c(Br)cc(Br)cc1Oc1c(Br)cc(Br)c(Br)c1O ?
Solution: inactive

Exercise: Form field: reported Activity of Oc1c(Br)cc(Br)cc1Oc1ccc(Br)cc1Br
Solution: inactive

Exercise: Reported Activity for Oc1c(Br)cc(Br)cc1Oc1c(O)c(Br)c(Br)c(Br)c1Br : what is it?
Solution: inactive

Exercise: Need Activity, item Oc1cc(Br)c(Br)c(Br)c1Oc1cc(Br)cc(Br)c1O
Solution: inactive

Shifting focus to the compound that follows.
Exercise: Looking for the measured Activity of COc1c(Br)cc(Br)cc1Oc1c(O)cc(Br)cc1Br , can you help?
Solution: inactive
